- Target or system: Cyclin-dependent kinase 4/G1/S-specific cyclin-D1 (Homo sapiens)
- Sequence (P11802 whole entry): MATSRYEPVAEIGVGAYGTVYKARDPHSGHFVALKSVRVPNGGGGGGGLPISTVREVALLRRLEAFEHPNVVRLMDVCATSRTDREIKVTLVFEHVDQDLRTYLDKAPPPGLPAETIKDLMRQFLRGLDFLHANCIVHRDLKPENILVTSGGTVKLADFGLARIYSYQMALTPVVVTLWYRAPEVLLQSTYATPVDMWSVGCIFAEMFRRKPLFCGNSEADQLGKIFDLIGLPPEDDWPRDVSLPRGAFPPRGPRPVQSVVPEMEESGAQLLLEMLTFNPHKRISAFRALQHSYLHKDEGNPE
- Sequence (P24385 whole entry, further chain): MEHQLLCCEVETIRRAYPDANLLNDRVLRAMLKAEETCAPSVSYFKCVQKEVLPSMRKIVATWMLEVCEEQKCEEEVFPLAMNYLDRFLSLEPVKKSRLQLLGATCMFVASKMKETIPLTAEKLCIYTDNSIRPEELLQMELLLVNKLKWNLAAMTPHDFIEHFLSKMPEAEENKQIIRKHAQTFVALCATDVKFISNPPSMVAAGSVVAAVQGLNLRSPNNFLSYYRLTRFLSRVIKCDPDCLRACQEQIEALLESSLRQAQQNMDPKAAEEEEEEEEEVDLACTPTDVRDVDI
- Assay info: CDK Kinase Inhibition Assay
- Condition context: pH 7; 22 °C
pIC50: −log10 of the molar value.
Outcome measure: pIC50

[[record]]
smiles_notation = "O=C1NC(=O)c2c1c1c3cc(F)ccc3[nH]c1c1c2c2cccc3c2n1CCNC3"
experimental_result = 7.47

[[record]]
smiles_notation = "O=C1NC(=O)c2c1c1c3ccc(C(F)(F)F)cc3[nH]c1c1c2c2cccc3c2n1CCNC3"
experimental_result = 7.16

[[record]]
smiles_notation = "O=C1NC(=O)c2c1c1c3ccccc3[nH]c1c1c2c2cccc3c2n1CCNCC3"
experimental_result = 6.80

[[record]]
smiles_notation = "O=C1NC(=O)c2c1c1c3ccc(C(F)(F)F)c(CO)c3[nH]c1c1c2c2cccc3c2n1CCNC3"
experimental_result = 7.36

[[record]]
smiles_notation = "CS(=O)(=O)N1CCn2c3c(cccc3c3c4c(c5c6ccccc6[nH]c5c32)C(=O)NC4=O)C1"
experimental_result = 7.28

[[record]]
smiles_notation = "CC(C)N1CCn2c3c(cccc3c3c4c(c5c6ccccc6[nH]c5c32)C(=O)NC4=O)C1"
experimental_result = 7.11

[[record]]
smiles_notation = "Cn1cnc(S(=O)(=O)N2CCn3c4c(cccc4c4c5c(c6c7ccccc7[nH]c6c43)C(=O)NC5=O)C2)c1"
experimental_result = 6.92

[[record]]
smiles_notation = "NCC(=O)N1CCn2c3c(cccc3c3c4c(c5c6ccccc6[nH]c5c32)C(=O)NC4=O)C1"
experimental_result = 7.00

[[record]]
smiles_notation = "O=C1NC(=O)c2c1c1c3ccccc3[nH]c1c1c2c2cccc3c2n1CCNC3"
experimental_result = 7.57

[[record]]
smiles_notation = "O=C1NC(=O)c2c1c1c3cc(F)c(F)cc3[nH]c1c1c2c2cccc3c2n1CCNC3"
experimental_result = 6.96

